The reported measurements were obtained from PubChem BioAssay AID2060615.

test system: 496974-208-R-J2-PDC complex spheroids, growth % test/control; assay: Anticancer human tumor 496974-208-R-J2-PDC patient-derived pancreatic carcinoma cell line growth inhibition [CLK]; settings: second compound 0.316 µM; first compound 0.316 µM; active compounds read low;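 note: spheroids exposed to the drugs for 7 days before readout; 100% = DMSO vehicle control wells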
measurement.type: viability, T/C (%)
Give a bare numeral; the unit % is implied.

[
  {
    "compound": "Nc1ccccc1NC(=O)c1ccc(CNC(=O)OCc2cccnc2)cc1 + CNC(=O)c1ccc(Nc2nc(OC3CCCC3)c3c(-c4ccc5nc(C)oc5c4)c[nH]c3n2)c(OC)c1",
    "system.under.test": "496974-208-R-J2-PDC complex spheroids, growth % test/control",
    "viability, T/C / %": 74.2
  }
]

Looking up C#Cc1c(F)ccc2cc(O)cc(-c3ncc4c(N5CC6CCC(C5)N6)nc(OCC56CCCN5CC(F)C6)nc4c3F)c12 (stereo not drawn) + CNC(=O)c1ccc(Nc2nc(OC3CCCC3)c3c(-c4ccc5nc(C)oc5c4)c[nH]c3n2)c(OC)c1 , I found its viability, T/C recorded as 37.2

Looking up COc1ccc([C@@H](O)c2cc(-c3ncnc4cc(N5CCOCC5)ccc34)c(F)cc2Cl)nn1 + CNC(=O)c1ccc(Nc2nc(OC3CCCC3)c3c(-c4ccc5nc(C)oc5c4)c[nH]c3n2)c(OC)c1 , I found its viability, T/C recorded as 68.9
